- measurementNotes: chemical genetic growth profiling, strain panel (AID 1159580);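 note: tested at 20 µM; growth read once vehicle control cultures reached saturation at 30 °C; 1 = growth at the plate median or of vehicle wells; lower values mean less growth of the strain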
- studyConditions: S. cerevisiae deletion strains, growth OD, locus YIL073C, strain SPO22, hits give low values
Out of some 5,500 compounds screened, about 2,000 (36%) were called active. About 18% were inconclusive and are not listed. The list shows a part of the results.
Consider the cut-off 1. If the recorded normalized growth is strictly smaller, the label is Met; if not, the label is Not met.

molecule	labelValue
CO[C@@H]1[C@@H](O[C@@H]2O[C@H](C)[C@@H](O[C@H]3C[C@@](C)(O)[C@H](O)[C@H](C)O3)[C@H](N(C)C)[C@H]2O)[C@@H](CC=O)C[C@@H](C)[C@@H](O[C@H]2CC[C@H](N(C)C)[C@@H](C)O2)/C=C/C=C/C[C@H](C)OC(=O)C[C@H]1O	Met
CC(COc1ccccc1)N(CCCl)Cc1ccccc1 (centres undefined)	Not met
CN(Cc1cnc2nc(N)nc(N)c2n1)c1ccc(C(=O)NC(CCC(=O)O)C(=O)O)cc1 (centres undefined)	Met
Nc1nc(N)c2nc(CNc3ccc(C(=O)NC(CCC(=O)O)C(=O)O)cc3)cnc2n1 (centres undefined)	Met
COc1cc(/C=C/C(=O)O)cc(OC)c1OC	Not met
CS(=O)(=O)OCCCCOS(C)(=O)=O	Met

---

- measurementNotes: chemical genetic growth profiling, strain panel (AID 1159580);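 note: tested at 20 µM; growth read once vehicle control cultures reached saturation at 30 °C; 1 = growth at the plate median or of vehicle wells; lower values mean less growth of the strain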
- studyConditions: S. cerevisiae deletion strains, growth OD, locus YNL207W, strain RIO2, hits give low values
About 2,000 (36%) of roughly 5,500 compounds were called active. Another 18% or so got no clear call; they are omitted. This is one part of the list.
measure: normalized growth

> print(dat)
                                    molecule            measure  valuereported
 1    O=C(Nc1cccc(C(F)(F)F)c1)Oc1ccc(F)cc1Cl  normalized growth          0.972
 2  CC(C)(O)C#Cc1ccc(/C=N\Nc2c(Cl)cc(Cl)cc2Cl)cc1  normalized growth          0.981
 3  COc1cc(C(=O)Oc2c(Cl)cc(Cl)cc2C=Nc2ccc([N+](=O)[O-])cc2C#N)cc(OC)c1OC  normalized growth          0.981
 4  OC(c1ccc(C(F)(F)F)cc1)c1cccc(C(F)(F)F)c1 (configuration not stated)  normalized growth          0.978
 5  COc1cc(C(=O)Oc2c(Cl)cc(Cl)cc2C=Nc2cccc([N+](=O)[O-])c2)cc(OC)c1OC  normalized growth          0.966
 6       CC(C)(O)C#Cc1ccc(/C=N\Nc2ccccc2)cc1  normalized growth          0.958
 7  COc1cc(N=Cc2cc(Cl)cc(Cl)c2OC(=O)c2cc(OC)c(OC)c(OC)c2)c(OC)cc1Cl  normalized growth          0.977
 8            NC(=NC(=O)c1ccc(Cl)cc1)c1cccs1  normalized growth          0.949
 9  CC1(C)C/C(=N/Nc2ccc(C(F)(F)F)cc2)c2cc(C(C)(C)C)c(O)c(O)c2O1  normalized growth          0.976
10      O=C(Nc1ccc(Cl)cc1Cl)c1cnccc1C(F)(F)F  normalized growth          0.976
11        O=C(CCSc1cccs1)Nc1cccc(C(F)(F)F)c1  normalized growth          0.921
12  O=C(CO/N=C\c1ccc(Cl)cc1Cl)NNC(=S)Nc1cc(Cl)ccc1Cl  normalized growth           1.01
13  COc1cc(C(=O)Oc2c(Cl)cc(Cl)cc2C=Nc2cccc(C(F)(F)F)c2)cc(OC)c1OC  normalized growth          0.982
14  Cc1onc(-c2ccccc2Cl)c1-c1nc2ccccc2c(=O)o1  normalized growth           0.97
15  CCOC(=O)CCc1cc(N=Cc2cc(Br)ccc2O)c(O)c(N=Cc2cc(Br)ccc2O)c1  normalized growth          0.957
16  O=C(Nc1ccccn1)c1cc(-c2ccccc2)c(C(F)(F)F)s1  normalized growth          0.935
17  CCC1CCC(C)N(C(=S)Nc2ccc(Br)cc2C)C1 (configuration not stated)  normalized growth          0.957
